System: LOC_OS01G39600-cb002
Experiment: thermal shift delta Tm vs DMSO control; higher = stronger stabilization (binding);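 further: purified Escherichia coli-expressed rice kinase domain construct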
Details: 12.5 µM; protein concentration 2 µM
Examples of compounds with documented thermal shift delta Tm follow.

# compound, studySystem, thermal shift delta Tm
measured = [
    ("Cc1[nH]c(/C=C2\\C(=O)Nc3ccc(S(=O)(=O)N(C)c4cccc(Cl)c4)cc32)c(C)c1C(=O)N1CCN(C)CC1", "LOC_OS01G39600-cb002", "-0.1 °C"),
]

Qu. Tell us which thermal shift delta Tm value is on record for Cc1c(C(=O)N2CCOc3ccc(-c4ccc(N)nc4)cc3C2)ccc(S(C)(=O)=O)c1F
Ans. -0.01 °C

Qu. Tell us which thermal shift delta Tm value is on record for COc1ccc(Oc2cc(NCCC(F)(F)F)c3ncc(-c4ccc(C(=O)NC5CC5)c(C)c4)n3n2)c(F)c1F
Ans. 1.84 °C

Qu. Tell us which thermal shift delta Tm value is on record for CCOc1cc(C(=O)N2CCC(N3CCN(C)CC3)CC2)ccc1Nc1ncc2c(n1)N(C1CCCC1)c1ccccc1C(=O)N2C
Ans. -0.95 °C

Qu. Tell us which thermal shift delta Tm value is on record for N#Cc1c(O)c2c(-c3ccc(-c4ccccc4O)cc3)csc2[nH]c1=O
Ans. 0.7 °C

Qu. Tell us which thermal shift delta Tm value is on record for CC1=C(C(=O)Nc2ccc3[nH]ncc3c2)C(c2ccc(F)cc2)NC(=O)N1 (configuration not stated)
Ans. 0.5 °C

* * *

Tested on: LOC_OS01G02750-cb003
Test: thermal shift delta Tm vs DMSO control; higher = stronger stabilization (binding)
Details: 12.5 µM; protein concentration 2 µM
Structures can show the parent of a compound that is named as a salt.
Please enter condition met where thermal shift delta Tm is greater than or equal to 0.8 °C, and condition not met where it is lower.

# compound, category
data = [
    ("Cn1cc(-c2ccc3nnc(Sc4ccc5ncccc5c4)n3n2)cn1", "condition not met"),
    ("NC(=O)c1ncn([C@@H]2O[C@H](CO)[C@@H](O)[C@H]2O)c1N [AICAR (Acadesine)]", "condition met"),
    ("CCN1CCN(Cc2ccc(-c3cc4c(N[C@H](C)c5ccccc5)ncnc4[nH]3)cc2)CC1", "condition not met"),
    ("Oc1cc(O)cc(/C=C/c2ccc(O)c(O)c2)c1 [Piceatannol]", "condition met"),
    ("CC(C)NC(=O)C1CCC(n2c(NC(=O)c3ccc(F)cc3)nc3ccc(CN4CCC(C(C)(C)O)CC4)cc32)CC1 (configuration not stated) [Belizatinib (TSR-011)]", "condition met"),
    ("C[C@H]1[C@H](C)CC[C@]2(C(=O)O)CC[C@]3(C)C(=CC[C@@H]4[C@@]5(C)C[C@@H](O)[C@H](O)[C@@](C)(CO)[C@@H]5CC[C@]43C)[C@H]12 [Asiatic Acid]", "condition not met"),
    ("Oc1ccc(-c2nc(-c3ccc(F)cc3)c(-c3ccncc3)[nH]2)cc1", "condition not met"),
    ("Cc1cc(Nc2nc(N[C@@H](C)c3ccc(F)cc3)c(C#N)cc2F)n[nH]1", "condition met"),
    ("COc1ccc(-c2ccc3c(N4CCOCC4)nc(N4C[C@@H](C)O[C@@H](C)C4)nc3n2)cc1CO", "condition not met"),
    ("O=C(O)[C@]1(Cc2cccc(Nc3nccs3)n2)CC[C@@H](Oc2cccc(Cl)c2F)CC1", "condition met"),
]

Qu. Check the entry Cc1cc(Nc2cc(N3CCN(C)CC3)nc(/C=C/c3ccccc3)n2)n[nH]1 [ENMD-2076 L-(+)-Tartaric acid] : does thermal shift delta Tm equal or exceed 0.8 °C?
Ans. condition met

Qu. Check the entry CN1CC[C@H](c2c(O)cc(O)c3c(=O)cc(-c4ccccc4Cl)oc23)[C@H](O)C1 [Flavopiridol HCl] : does thermal shift delta Tm equal or exceed 0.8 °C?
Ans. condition not met

Qu. Check the entry Oc1ccc(Nc2nc(-c3ccc(Cl)cc3)cs2)cc1 : does thermal shift delta Tm equal or exceed 0.8 °C?
Ans. condition met
